# Read-out: Protein phosphatase 2A (PPP2R4), PTPA (gene 5524)
# methodNotes: LTEA_HepaRG_PPP2R4: Life Technologies and Expression Analysis (LTEA) Assay for Protein phosphatase 2A (PPP2R4) using HepaRG (AID 2283522)
# measurementSetup: mRNA level, 48 h; actives raise or lower the signal
Activity calls are given as the source filed them. Rule for the calls: active = hit-call score of the fitted dose curve at least 0.9, where 1 is the maximum; inactive = score below 0.9.
One label from this list, please: TRUE = active, FALSE = inactive

COC(=O)CCCCC(=O)OC; FALSE

Exam item: Just curious, what result did `CCCCCCCCC(=O)O` get here?
Marked response: FALSE

---

# targetUnderTest: Cellular tumor antigen p53 (Homo sapiens)
# methodNotes: ATG_p53_CIS: Attagene CIS-FACTORIAL HepG2 Assay for human p53 Transcription Factor (AID 2282994)
# measurementSetup: HepG2 p53 cis-element reporter, Attagene mRNA; actives raise or lower the signal
Active and inactive are the calls of the source. The calls were made as follows: active = hit-call score of the fitted dose curve at least 0.9, where 1 is the maximum; inactive = score below 0.9.
One label from this list, please: 1.0 for active, 0.0 for inactive

// below: answered compounds
CN1CCN(c2ccccc2/C=C2\SCCN(c3ccc(Cl)c(Cl)c3)C2=O)CC1; 0.0
CC(C)CCCCCCOC(=O)CCCCC(=O)OCCCCCCC(C)C; 0.0
C[C@@H]1C[C@H]2[C@@H]3CCC4=CC(=O)C=C[C@]4(C)[C@@]3(F)[C@@H](O)C[C@]2(C)[C@@]1(O)C(=O)COP(=O)(O)O; 0.0
O=C(O)Cc1cc(I)c(Oc2cc(I)c(O)c(I)c2)c(I)c1; 0.0
NC(=O)N1C(=O)C(C(=O)c2cc(Cl)cs2)c2cc(F)c(Cl)cc21 (stereo not drawn); 0.0

Exam item: Just curious, what result did COCC(C)OCC(C)O (stereo not drawn) get here?
Marked response: 0.0

Exam item: Just curious, what result did OC1CCC(C2CCCCC2)CC1 (stereo not drawn) get here?
Marked response: 0.0

Exam item: Just curious, what result did `CC(=O)NC1(c2cccc(F)c2)CCN(CC[C@@]2(c3ccc(Cl)c(Cl)c3)CN(c3ccccc3)C(=O)CO2)CC1` get here?
Marked response: 1.0

Exam item: Just curious, what result did `COC(=O)CCCCC(=O)OC` get here?
Marked response: 0.0

Exam item: Just curious, what result did `CCCCCCC(=O)O` get here?
Marked response: 0.0

Exam item: Just curious, what result did `CCCCCCCCCCCCCCCS(=O)(=O)Oc1ccccc1` get here?
Marked response: 0.0

Exam item: Just curious, what result did `c1ccc2cc3c(ccc4ccccc43)cc2c1` get here?
Marked response: 0.0

Exam item: Just curious, what result did `O=C(/C=C/c1ccc(O)cc1)CC(=O)/C=C/c1ccc(O)cc1` get here?
Marked response: 0.0

Exam item: Just curious, what result did `CCCOC(=O)c1ccc(O)cc1` get here?
Marked response: 0.0

Exam item: Just curious, what result did `O=c1c(-c2ccc(O)cc2)coc2cc(O)ccc12` get here?
Marked response: 0.0

Exam item: Just curious, what result did `OC1CCCCC1` get here?
Marked response: 0.0

Exam item: Just curious, what result did `c1ccc2c(c1)Cc1ccccc1-2` get here?
Marked response: 0.0

Exam item: Just curious, what result did `CN(C)C=O` get here?
Marked response: 0.0

---

# Read-out: Cytochrome P450 4A22 (Homo sapiens)
# methodNotes: LTEA_HepaRG_CYP4A22: Life Technologies and Expression Analysis (LTEA) Assay for Cytochrome P450 4A22 (CYP4A22) using HepaRG (AID 2283495)
# measurementSetup: mRNA level, 48 h; actives raise or lower the signal
Calls of active or inactive are those of the source. The calls were made as follows: active = hit-call score of the fitted dose curve at least 0.9, where 1 is the maximum; inactive = score below 0.9.
One label from this list, please: active, inactive

// below: answered molecules
CCCOC(=O)c1ccc(O)cc1; inactive
CC#C[C@]1(O)CC[C@H]2[C@@H]3CCC4=CC(=O)CCC4=C3[C@@H](c3ccc(N(C)C)cc3)C[C@@]21C; active
OCCC(F)(F)C(F)(F)C(F)(F)C(F)(F)C(F)(F)C(F)(F)C(F)(F)C(F)(F)F; inactive
CCCCC(CC)COC(=O)CCCCC(=O)OCc1ccccc1 (stereo not drawn); inactive
Cc1cc(CCN2CCN(c3nsc4ccccc34)CC2)cc2c1NC(=O)CC2(C)C; active
CN1CCC[C@H]1c1cccnc1; inactive
c1ccc2c(c1)ccc1ccccc12; inactive
CC(C)(C)c1cccc(C(C)(C)C)c1O; inactive
CCCCCCCCCCCCc1ccccc1S(=O)(=O)O; active
CCCCCCCCCCCCCCCS(=O)(=O)Oc1ccccc1; inactive

Now for another entry.
Exam item: Just curious, what result did `COc1ccc([N+](=O)[O-])cc1N` get here?
Marked response: inactive

---

# methodNotes: APR_HepG2_MicrotubuleCSK_24hr: Apredica 24-hour HepG2 Assay for Microtubule CSK Stabilty (AID 2282909)
# measurementSetup: HepG2 microtubule cytoskeleton imaging, actives raise or lower the signal
# Description: APR_HepG2_24hr is a cell-based, multiplexed-readout assay that uses HepG2, a human liver cell line, with measurements taken at 24 hours after chemical dosing in a 384-well plate.APR_HepG2_MicrotubuleCSK_24hr is one of 10 assay component(s) measured or calculated from the APR_HepG2_24hr assay. […] This assay endpoint, APR_HepG2_MicrotubuleCSK_24hr, was analyzed with bidirectional fitting relative to DMSO as the negative control and baseline of activity. […]
Active and inactive are the calls of the source. How the source made its calls: active means hit-call score of the fitted dose curve at least 0.9, where 1 is the maximum; inactive means score below 0.9.
One label from this list, please: T = active, F = inactive

// below: answered compounds
Cc1oc(-c2ccccc2)nc1CCOc1ccc(C[C@H](Nc2ccccc2C(=O)c2ccccc2)C(=O)O)cc1; F
COc1ccc([N+](=O)[O-])cc1N; F

Now for another entry.
Exam item: Just curious, what result did `CC(=O)CC(C)(C)O` get here?
Marked response: T

---

# Read-out: Urokinase-type plasminogen activator receptor (uPAR), PLAUR (gene 5329)
# methodNotes: BSK_BE3C_uPAR: BioMAP Diversity Plus: BE3C Assay for Urokinase-type plasminogen activator receptor (uPAR) Biomarker Activity (AID 2283039)
# measurementSetup: primary human bronchial epithelial cells; actives raise or lower the signal
The source made the active and inactive calls. How the source made its calls: active means hit-call score of the fitted dose curve at least 0.9, where 1 is the maximum; inactive means score below 0.9.
endpointLabel: AC50

CC(=O)NC1(c2cccc(F)c2)CCN(CC[C@@]2(c3ccc(Cl)c(Cl)c3)CN(c3ccccc3)C(=O)CO2)CC1; 16.6 µM (active)
CC(C)(C)c1ccc(O)c(C(C)(C)C)c1; 36.3 µM (active)
COC(=O)CCCCC(=O)OC; inactive
CCOC(=O)CC(O)(CC(=O)OCC)C(=O)OCC; inactive
Nc1cccc2c(N)cccc12; inactive

Now for a further molecule.
Note to self: AC50 recorded for CCCCC(CC)COC(=O)CCCCC(=O)OCc1ccccc1 (stereo unspecified) was inactive

---

# Read-out: Glutamate-cysteine ligase catalytic (GCLC), GCLC (gene 2729)
# methodNotes: LTEA_HepaRG_GCLC: Life Technologies and Expression Analysis (LTEA) Assay for Glutamate-cysteine ligase catalytic (GCLC) using HepaRG (AID 2283498)
# measurementSetup: mRNA level, 48 h; actives raise or lower the signal
The source made the active and inactive calls. How the source made its calls: active means hit-call score of the fitted dose curve at least 0.9, where 1 is the maximum; inactive means score below 0.9.
One label from this list, please: active, inactive

// below: answered compounds
CCC(=C(c1ccc(O)cc1)c1ccc(OCCN(C)C)cc1)c1ccccc1; inactive
O=[N+]([O-])c1ccc(O)cc1; inactive
CCCCCCCCCCCCCCCS(=O)(=O)Oc1ccccc1; inactive
COCC(C)OCC(C)O (centres undefined); inactive
N#C[C@@H]1CC(F)(F)CN1C(=O)CNC1CC2CCC(C1)N2c1ncccn1 (some centres undefined); inactive
O=c1c(-c2ccc(O)cc2)coc2cc(O)ccc12; inactive

Exam item: Just curious, what result did `CCN(CC)CCNc1ccc(CNC=O)c2sc3ccc(OC)cc3c(=O)c12` get here?
Marked response: active

Exam item: Just curious, what result did OC1CCC(C2CCCCC2)CC1 (centres undefined) get here?
Marked response: inactive

Exam item: Just curious, what result did `NC(=O)N(O)[C@@H]1C=C[C@H](Oc2cccc(Oc3ccc(F)cc3)c2)C1` get here?
Marked response: inactive

Exam item: Just curious, what result did `CC[C@H](c1ccc(O)cc1)[C@@H](CC)c1ccc(O)cc1` get here?
Marked response: active

---

# Read-out: CYP2C9 (gene 1559)
# methodNotes: LTEA_HepaRG_CYP2C9: Life Technologies and Expression Analysis (LTEA) Assay for CYP2C9 using HepaRG (AID 2283484)
# measurementSetup: mRNA level, 48 h; actives raise or lower the signal
The source made the active and inactive calls. The calls were made as follows: active = hit-call score of the fitted dose curve at least 0.9, where 1 is the maximum; inactive = score below 0.9.
One label from this list, please: active, inactive

CC(C)(C)CC(C)(C)c1ccc(O)c(-n2nc3ccccc3n2)c1; inactive
CCc1ccc(CCOc2ccc(CC3SC(=O)NC3=O)cc2)nc1 (stereo not given); active
OCCC(F)(F)C(F)(F)C(F)(F)C(F)(F)C(F)(F)C(F)(F)C(F)(F)C(F)(F)F; inactive
CCC(C)(C)C1CCC(O)CC1 (stereo not given); inactive
Oc1cc2ccccc2c2ccccc12; inactive

Exam item: Just curious, what result did `CC(C)(C)c1cccc(C(C)(C)C)c1O` get here?
Marked response: inactive

Exam item: Just curious, what result did COCC(C)OCC(C)O (stereo not given) get here?
Marked response: inactive

Exam item: Just curious, what result did `CC(C)CCCCCCOC(=O)CCCCC(=O)OCCCCCCC(C)C` get here?
Marked response: inactive

Exam item: Just curious, what result did `OC1CCCCC1` get here?
Marked response: inactive

Exam item: Just curious, what result did `CCCOC(=O)c1ccc(O)cc1` get here?
Marked response: inactive

Exam item: Just curious, what result did `CCC(=C(c1ccc(O)cc1)c1ccc(OCCN(C)C)cc1)c1ccccc1` get here?
Marked response: inactive

Exam item: Just curious, what result did `Cc1cc(CCN2CCN(c3nsc4ccccc34)CC2)cc2c1NC(=O)CC2(C)C` get here?
Marked response: active

Exam item: Just curious, what result did `CC[C@H](C)[C@@H](C(=O)O)n1sc2ccccc2c1=O` get here?
Marked response: inactive

Exam item: Just curious, what result did `C[C@@H]1C[C@H]2[C@@H]3CCC4=CC(=O)C=C[C@]4(C)[C@@]3(F)[C@@H](O)C[C@]2(C)[C@@]1(O)C(=O)COP(=O)(O)O` get here?
Marked response: inactive

Exam item: Just curious, what result did `NC(=O)N(O)[C@@H]1C=C[C@H](Oc2cccc(Oc3ccc(F)cc3)c2)C1` get here?
Marked response: active

Exam item: Just curious, what result did `CCCCCCCCOC(=O)CCCCCCCCC(=O)OCCCCCCCC` get here?
Marked response: inactive
